In this section, each of the compounds is paired with its reported TGI.
system: HOP-62 NSCLC; test: NCI tumour cell line growth inhibition, 48 h
*1 amine or outer side, *2 acyl side, *3 side chain or, on linkers, in order; H or OH if unused. Where a SMILES comes first, the peptide text is derived from it. Bridges are numbered along the chain shown (N, C = ends). [ ]: non-standard residue; d: D form. The star is where a group is joined. Phe(3,5-F2) = N[C@@H](Cc1cc(F)cc(F)c1)C(=O)O; Pro(4R-Me) = C[C@H]1CN[C@H](C(=O)O)C1; aThr = C[C@H](O)[C@H](N)C(=O)O; Pip = O=C(O)[C@@H]1CCCCN1; X10 = Fc1cc(C2CC2)ccc1N*; Abu = CC[C@H](N)C(=O)O; CO = O=C([*:1])[*:2]

compound	TGI
CC[C@@H]1NC(=O)[C@@H]2CCCCN2C(=O)[C@@H]2CCCN2C(=O)[C@@H](NC(=O)[C@H](Cc2cc(F)cc(F)c2)NC(=O)Nc2ccc(C3CC3)cc2F)[C@H](C)OC(=O)[C@@H]2C[C@@H](C)CN2C1=O ({X10-CO}-[Phe(3,5-F2)][aThr]P[Pip][Abu][Pro(4R-Me)]; ester 2-C)	> 86.2 µM
CCCCOC(=O)NC(c1ccccc1)C(O)C(=O)OC1C[C@@]2(O)C(OC(=O)c3ccccc3)C3[C@](C)(C(=O)[C@H](OC(C)=O)C(=C1C)C2(C)C)[C@@H](O)C[C@H]1OC[C@@]31OC(C)=O (some centres undefined)	> 10 µM
CN(C)c1ccc(/C=N/N=C2\C(=O)Nc3c(Cl)cc(Cl)cc32)cc1	> 100 µM
ClC1=C(Cl)C(Cl)=C(Cl)C1=Cc1ccccc1	3.68 µM

---

system: 786-0 renal; experiment: NCI tumour cell line growth inhibition, 48 h

compound	TGI
COc1cc(C(C)c2ccc3c(ccn3C)c2)cc(OC)c1OC (stereo unspecified)	26.7 µM
Oc1ccc(CCl)c2cccnc12	> 100 µM
CCOc1ccc(NC(=O)/C(=N\N)C(C(=O)OC)c2nc3ccc(Cl)cc3[nH]c2=O)cc1 (stereo unspecified)	> 100 µM
CN(CCNC(=O)c1nn(-c2ccccc2)c2c1ccc1ccccc12)CCNC(=O)c1nn(-c2ccccc2)c2c1ccc1ccccc12	3.04 µM
CCn1cc(C(=O)N/N=C/c2ccc(Br)cc2)c(=O)c2cc(F)c(N3CCNC(C)C3)c(F)c21 (stereo unspecified)	3.21 µM
COc1cnc2c(c1)C(=O)c1c-2n(CCCBr)c(=O)c2cc([N+](=O)[O-])ccc12	0.716 µM
CCOC(=O)c1c(-c2ccccc2)oc(=O)c(Cc2cccc3cccnc23)c1-c1ccccc1	> 10 µM
CC(C)OP(=O)(c1ccccc1)c1ccc2c(c1)OCCOCCOCCOCCO2 (stereo unspecified)	> 100 µM
C=C1C/C(=C/C)C(=O)O[C@@H]2CCN3CC=C(COC(=O)[C@]1(C)O)[C@H]23	> 100 µM
CC(=NCC(=O)O)c1ccccc1	> 100 µM
O=C1Nc2ccccc2C1(c1c[nH]c2ccccc12)c1c[nH]c2ccccc12	4.11 µM
Cc1cc(-c2c(Br)cc(C(=O)O)n2C)on1	> 100 µM
NC(Cc1c[nH]c2ccccc12)P(=O)(O)O (stereo unspecified)	> 100 µM
Nc1ncnc2nc(N3CCN(CCO)CC3)[nH]c12	> 100 µM
O=c1c(C(=Nc2ccccc2)c2ccccc2)c[nH]n1-c1ccccc1	> 100 µM
CC(C1=CC=C2[C@@H]3CCC4CC(N(C)C)CC[C@]4(C)C3CC[C@]12C)N(C)C=O (stereo partly specified)	> 100 µM
N=C1S/C(=C/c2ccc(-c3ccc4c(c3)C(=O)NC4=O)o2)C(=O)N1c1ccc(Br)cc1	> 100 µM
COc1cc(NC(=O)c2ccc(C(F)(F)F)nc2Nc2ccc(Cl)cc2C)cc(OC)c1OC	22.4 µM
OC1(c2ccccc2)CCCCCCCCC(O)(c2ccccc2)CCCCCCCC1 (stereo unspecified)	> 100 µM
COc1ccc2c(=O)c(-c3cc4c(cc3OC)OCO4)coc2c1	> 100 µM
CCCCOC(=O)NC(c1ccccc1)C(O)C(=O)OC1C[C@@]2(O)C(OC(=O)c3ccccc3)C3[C@](C)(C(=O)[C@H](OC(C)=O)C(=C1C)C2(C)C)[C@@H](O)C[C@H]1OC[C@@]31OC(C)=O (stereo partly specified)	> 10 µM
CCCCCCCC/C=C\CCCCCCC/C=C1/C[C@](/C=C/C(=O)OC)(CO)OC1=O	10.3 µM
O=C(Nc1ccc(Oc2cccc(Cl)c2)c(Cl)c1)c1cnccn1	> 50 µM
COc1cccc(CC(C)N)c1 (stereo unspecified)	> 100 µM
CC1=C(O)C(=O)C2C(=O)C1C(C)C2c1ccc(C)cc1 (stereo unspecified)	> 100 µM
O=[N+]([O-])c1cccc(-c2ncnc(-c3cccc([N+](=O)[O-])c3)n2)c1	> 100 µM
O=c1[nH]c2ccc(N=Cc3c(O)[nH]c4ccccc34)cc2[nH]1	> 25 µM
CC(=O)Nc1ccc(NNc2cc(=O)n(C)c(=O)[nH]2)cc1	7.63 µM
COC(=O)C1=C(c2cc(OC)c(OC)c(OC)c2)OC(c2ccc3c(c2)OCO3)C1 (stereo unspecified)	> 100 µM
NC(=O)n1ncc(Cl)c(Cl)c1=O	> 100 µM
Cc1nc2ccccc2c(/C=C/c2ccc(Cl)cc2)c1C(=O)/C=C/c1ccc(F)cc1	3.48 µM

---

TGI values by entry
test system: SR leukemia; test: NCI tumour cell line growth inhibition, 48 h
*1 amine or outer side, *2 acyl side, *3 side chain or, on linkers, in order; H or OH if unused. Where a SMILES comes first, the peptide text is derived from it. Bridges are numbered along the chain shown (N, C = ends). [ ]: non-standard residue; d: D form. The star is where a group is joined. Phe(3,5-F2) = N[C@@H](Cc1cc(F)cc(F)c1)C(=O)O; Pro(4R-Me) = C[C@H]1CN[C@H](C(=O)O)C1; aThr = C[C@H](O)[C@H](N)C(=O)O; Pip = O=C(O)[C@@H]1CCCCN1; X10 = Fc1cc(C2CC2)ccc1N*; Abu = CC[C@H](N)C(=O)O; CO = O=C([*:1])[*:2]

molecule	TGI
O=C1CCC(c2nc3cc(Cl)ccc3o2)C(=O)N1 (stereo not drawn)	> 100 µM
Cc1nc2ccccc2c(/C=C/c2ccc(Cl)cc2)c1C(=O)/C=C/c1ccc(F)cc1	5.47 µM
COc1cc2c(c(OC)c1OC)-c1ccc(SC)c(=O)cc1[C@@H](OC(=O)c1ccncc1)CC2	> 39.1 µM
OC1(c2ccccc2)CCCCCCCCC(O)(c2ccccc2)CCCCCCCC1 (stereo not drawn)	> 100 µM
C[C@]12CC[C@H](OC3OC(O)C(O)C(O)C3O)C=C1CCC1C2CC[C@]2(C)[C@@H](c3ccc(=O)oc3)CC[C@]12O (stereo partly drawn)	0.00619 µM
COc1cc(OC)cc(C2C(C#N)=C(N)Oc3c2ccc2ccc(O)cc32)c1 (stereo not drawn)	27.1 µM
CCC1(O)C(=O)OCc2c1cc1n(c2=O)Cc2cc3ccc(CO)cc3nc2-1 (stereo not drawn)	0.298 µM
Nc1ccn(C2OC(COP(=O)(O)OCC3OC(n4cc(F)c(=O)[nH]c4=O)CC3O)C(O)C2O)c(=O)n1 (stereo not drawn)	> 88.6 µM
COC(=O)C(=O)C(C(=O)OC)C(=O)C(=O)Nc1ccccc1C(N)=O (stereo not drawn)	> 100 µM
Cn1c2ccccc2c2ccc3c(c21)C(=O)C=CC3=O	15.9 µM
COC(=O)c1c2c(c3[nH]c4ccccc4c3c1C(=O)OC)C(=O)C1=C(C2=O)C2(Cl)C(Cl)C(Cl)C1(Cl)C2(Cl)Cl (stereo not drawn)	2.63 µM
[N-]=[N+]=NCCCn1c2c(c3ccccc3c1=O)C(=O)c1cc(Br)ccc1-2	51.7 µM
O=C1C(c2ccccc2)=[N+]([O-])c2cc([N+](=O)[O-])c(/C(Cl)=C/c3ccccc3)cc21	53 µM
COC(=O)C(CCC1CC(OC)N(C(=O)OCc2ccccc2)C1)N=Cc1ccccc1 (stereo not drawn)	> 100 µM
CC(C)(C)C(=O)CC1(O)C=C(O)C(O)(CC(=O)C(C)(C)C)O1 (stereo not drawn)	> 100 µM
CC(C)=NNc1ncnc2c1ncn2C1OC(CO)C(O)C1O (stereo not drawn)	> 22 µM
CC(=O)Oc1ccc2oc(=O)cc(C)c2c1	> 100 µM
COc1ccc(NC(=S)N/N=C/c2c(C)n(C)n(-c3ccccc3)c2=O)cc1	> 100 µM
O=C1CCC(C(=O)O)C2=C1CCCC2 (stereo not drawn)	> 100 µM
ClCCN1CCOC1=C1C=CC=C1	40.4 µM
COc1ccc2c(=O)c(-c3cc4c(cc3OC)OCO4)coc2c1	> 100 µM
O=C1Nc2ccccc2C1(c1c[nH]c2ccccc12)c1c[nH]c2ccccc12	> 100 µM
CC[C@@H]1NC(=O)[C@@H]2CCCCN2C(=O)[C@@H]2CCCN2C(=O)[C@@H](NC(=O)[C@H](Cc2cc(F)cc(F)c2)NC(=O)Nc2ccc(C3CC3)cc2F)[C@H](C)OC(=O)[C@@H]2C[C@@H](C)CN2C1=O ({X10-CO}-[Phe(3,5-F2)][aThr]P[Pip][Abu][Pro(4R-Me)]; ester 2-C)	3.38 µM
CC1(C)CC(=O)c2c(nc3c(ccc4ccccc43)c2-c2ccc(NC(=O)CCCC(=O)Nc3ccc(-c4c5c(nc6c4ccc4ccccc46)CC(C)(C)CC5=O)cc3)cc2)C1	> 100 µM
Cn1cc(C2=C(c3c4n(c5ccccc35)CCN(C(N)=S)C4)C(=O)NC2=O)c2ccccc21	> 15.1 µM
O=C(NC1CCC(Br)CC1)C1CCCC(S(=O)(=O)NC2CCCCC2)C1 (stereo not drawn)	129 µM
Cn1c(-c2c(N)n(Cc3ccc(C(F)(F)F)cc3)c3nc(C#N)c(C#N)nc23)nc2ccccc21	47.3 µM
COc1cnc2c(c1)C(=O)c1c-2n(CCCBr)c(=O)c2cc([N+](=O)[O-])ccc12	> 100 µM
C=C(C)C(CC=C(C)C)Cc1c(O)cc(OC)c2c1OC(c1ccc(O)cc1O)C(O)C2=O (stereo not drawn)	> 100 µM
COc1ccc2c(c1OC)CO[C@@H]2[C@H]1c2c(c(Br)c3c(c2OC)OCO3)CCN1C	> 100 µM
O=C1OC(CC(=O)c2ccccc2Cl)C(Cl)=C1Cl (stereo not drawn)	> 100 µM
O=C(O)COc1cc(-c2ccccc2)nc2ccc(F)cc12	> 100 µM
O=C(O)CC1OCC=C2C[N+]3([O-])CCC45c6ccccc6NC4C1C2CC53 (stereo not drawn)	> 100 µM
